// values below are reported pEC50
Target: FBW7^ARG+pCycE (Homo sapiens, UniProt Q969H0, R505L)
Construct: GST (TEV site and flexible linker) (N, cleaved yes); made in house; host or cells: SF9 insect cells (baculovirus)
Sequence (Q969H0 64-707 R505L): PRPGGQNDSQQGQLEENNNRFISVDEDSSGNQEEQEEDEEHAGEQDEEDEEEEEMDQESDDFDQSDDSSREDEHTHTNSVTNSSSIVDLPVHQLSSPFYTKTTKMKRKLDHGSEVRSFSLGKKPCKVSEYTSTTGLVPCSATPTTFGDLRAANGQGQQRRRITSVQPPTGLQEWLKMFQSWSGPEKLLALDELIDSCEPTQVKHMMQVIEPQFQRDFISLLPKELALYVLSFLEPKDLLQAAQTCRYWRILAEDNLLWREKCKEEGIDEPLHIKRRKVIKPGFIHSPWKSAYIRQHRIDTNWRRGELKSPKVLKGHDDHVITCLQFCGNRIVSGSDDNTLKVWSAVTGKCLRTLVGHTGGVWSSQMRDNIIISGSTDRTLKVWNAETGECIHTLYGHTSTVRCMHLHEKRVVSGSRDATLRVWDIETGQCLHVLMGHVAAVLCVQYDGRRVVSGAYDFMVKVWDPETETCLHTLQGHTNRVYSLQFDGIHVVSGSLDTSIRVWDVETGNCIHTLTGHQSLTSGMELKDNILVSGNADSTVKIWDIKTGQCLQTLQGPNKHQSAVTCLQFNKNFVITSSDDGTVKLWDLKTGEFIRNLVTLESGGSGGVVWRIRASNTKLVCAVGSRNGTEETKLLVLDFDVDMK
Sequence (P63208 2-163 partner): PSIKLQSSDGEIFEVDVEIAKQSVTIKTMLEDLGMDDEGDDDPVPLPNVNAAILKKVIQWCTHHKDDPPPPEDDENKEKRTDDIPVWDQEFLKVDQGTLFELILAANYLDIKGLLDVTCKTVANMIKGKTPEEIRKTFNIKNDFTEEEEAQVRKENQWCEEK
Assay: FBW7^ARG-cyclin E agonist ALPHAscreen (primary PRUN, confirmation CRUN1, dose-response DRUN)
Type: binding
Conditions: DRUN dose-response, raw curve fit; read-out: FBW7 ACT EC50 Curve Fit Raw, Molar
Please keep in mind that pEC50 is minus log10 of the molar concentration; only the number is needed.

Example cases with answers are listed next.
[
  {
    "COMPOUND": "COc1ccccc1-c1ccc(=O)n(CC(=O)Nc2ccc(C(=O)N3CCCC3)cc2)n1 [SR-01000332536-1]",
    "TARGET_OF_ASSAY": "FBW7^ARG+pCycE (Homo sapiens, UniProt Q969H0, R505L)",
    "ENDPOINT_RESULT": 4.72
  },
  {
    "COMPOUND": "COc1cccc(C=O)c1OC(=O)c1cccc(Cl)c1 [SR-01000242625-1]",
    "TARGET_OF_ASSAY": "FBW7^ARG+pCycE (Homo sapiens, UniProt Q969H0, R505L)",
    "ENDPOINT_RESULT": 4.57
  }
]

Cc1cccc(NC(=O)N2CCC(c3nnc(C4CC4)s3)CC2)c1 [SR-01000922889-1] has a reported pEC50 of 4.78

In plain terms, COCCOC(=O)C1=C(C)NC2=C(C(=O)CC(c3ccccc3)C2)C1c1ccc(OCc2ccccc2)cc1 (centres unmarked) [SR-01000422392-1] has a documented pEC50 of 4.52

pEC50 for Cc1c(NC(=O)/C(=C\c2ccccc2)NC(=O)c2ccccc2)c(=O)n(-c2ccccc2)n1C [SR-01000422225-1] is 7.40

Given item COc1ccccc1-c1ccc(N2CCN(C(=O)COc3ccccc3)CC2)nn1 [SR-01000920770-1] , the value recorded as its pEC50 is 4.74

Noted for COc1cc2c(cc1OC)C(COc1ccc([N+](=O)[O-])cc1)N(C(=O)c1ccc3c(c1)OCO3)CC2 (centres unmarked) [SR-01000568734-1] : its pEC50 reads 5.04

Data point: COc1ccc(N2C(=O)CC(SCCN)C2=O)cc1 (centres unmarked) [SR-01000428800-1] ; pEC50 = 4.82

Per the record, CC(NC(=O)c1cnc2ccccn12)c1ccc(F)cc1 (centres unmarked) [SR-01000378746-1] has pEC50 of 7.04

Recorded pEC50 (compound O=C(Nc1ccc2c(c1)OCO2)N1CCC(c2nnc(C3CC3)s2)CC1 [SR-01000922885-1] ): 4.50

For record COc1ccc(C2CC(=O)C3=C(C2)NC(C)=C(C(=O)OC(C)C)C3c2ccccc2OC(C)C)cc1 (centres unmarked) [SR-01000422384-1] the listed pEC50 is 4.84

Memo: CCN(CC)c1ccc2cc(-c3ccccn3)c(=O)oc2c1 [SR-01000033354-1] , reported pEC50: 4.61

Sure, the documented pEC50 for CC(=O)NCC(c1cccs1)S(=O)(=O)c1ccc(C)cc1 (centres unmarked) [SR-01000023077-1] is 4.82

Measured pEC50 of CC(=O)Nc1ccc(NC(=O)Cn2cnc3c(cnn3C(C)(C)C)c2=O)cc1 [SR-01000137195-1] : 4.87
